These data points were gathered from patent US20220340684A1.

- System Under Test: T1, Recombinant human TRIM21 PRYSPRY domain (His-tagged, expressed in E. coli BL21 (DE3)) (human, UniProt P19474 287-475, biotinylated when used as bait for biopanning and in the ELISAs (sites not given))
- T1 construct: Purified on Ni-NTA and by gel filtration; Analyte in SPR; biotinylated form used in biopanning and ELISA; also called PRYSPRY domain of TRIM21; bait protein; not shown: N-terminal His-tag of the pQE-2 vector
- T1 sequence (P19474 287-475): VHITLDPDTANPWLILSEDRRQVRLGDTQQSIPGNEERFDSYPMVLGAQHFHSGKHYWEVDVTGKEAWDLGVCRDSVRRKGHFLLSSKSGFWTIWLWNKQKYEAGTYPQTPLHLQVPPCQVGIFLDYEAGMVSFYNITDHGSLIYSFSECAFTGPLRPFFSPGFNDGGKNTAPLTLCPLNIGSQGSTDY
- Test: SPR as in Example 1.10, TRIM21 PRYSPRY domain;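 also: antibodies amine-coupled to a GLC chip on a ProteON XPR36, TRIM21 flowed at five concentrations in PBS with 0.05% Tween-20, kinetics fitted to a Langmuir 1:1 model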

Binder: Fc region SN 32 of FIG. 13 (IgG1 256P/433T/434R) (other) PCPAPELLGGPSVFLFPPKPKDTLMISRPPEVTCVVVDVSHEDPEVKFNWYVDGVEVHNAKTKPREEQYNSTYRVVSVLTVLHQDWLNGKEYKCKVSNKALPAPIEKTISKAKGQPREPQVYTLPPSRDELTKNQVSLTCLVKGFYPSDIAVEWESNGQPENNYKTTPPVLDSDGSFFLYSKLTVDKSRWQQGNVFSCSVMHEALTRHYTQKSLSLSPGK
koff: 0.00053 s⁻¹
--
Binder: Fc region SN 10 of FIG. 13 (IgG1 256P/433V/434H/440R) (other) PCPAPELLGGPSVFLFPPKPKDTLMISRPPEVTCVVVDVSHEDPEVKFNWYVDGVEVHNAKTKPREEQYNSTYRVVSVLTVLHQDWLNGKEYKCKVSNKALPAPIEKTISKAKGQPREPQVYTLPPSRDELTKNQVSLTCLVKGFYPSDIAVEWESNGQPENNYKTTPPVLDSDGSFFLYSKLTVDKSRWQQGNVFSCSVMHEALVHHYTQKRLSLSPGK
koff: 0.00046 s⁻¹
--
Binder: Fc region SN 9 of FIG. 13 (IgG1 256P/433V/434H) (other) PCPAPELLGGPSVFLFPPKPKDTLMISRPPEVTCVVVDVSHEDPEVKFNWYVDGVEVHNAKTKPREEQYNSTYRVVSVLTVLHQDWLNGKEYKCKVSNKALPAPIEKTISKAKGQPREPQVYTLPPSRDELTKNQVSLTCLVKGFYPSDIAVEWESNGQPENNYKTTPPVLDSDGSFFLYSKLTVDKSRWQQGNVFSCSVMHEALVHHYTQKSLSLSPGK
koff: 0.000481 s⁻¹
--
Binder: Fc region SN 2 of FIG. 13 (IgG1 256P/433S/434H) (other) PCPAPELLGGPSVFLFPPKPKDTLMISRPPEVTCVVVDVSHEDPEVKFNWYVDGVEVHNAKTKPREEQYNSTYRVVSVLTVLHQDWLNGKEYKCKVSNKALPAPIEKTISKAKGQPREPQVYTLPPSRDELTKNQVSLTCLVKGFYPSDIAVEWESNGQPENNYKTTPPVLDSDGSFFLYSKLTVDKSRWQQGNVFSCSVMHEALSHHYTQKSLSLSPGK
koff: 0.000727 s⁻¹
--
Binder: Fc region SN 46 of FIG. 13 (IgG1 256P/433V/434R) (other) PCPAPELLGGPSVFLFPPKPKDTLMISRPPEVTCVVVDVSHEDPEVKFNWYVDGVEVHNAKTKPREEQYNSTYRVVSVLTVLHQDWLNGKEYKCKVSNKALPAPIEKTISKAKGQPREPQVYTLPPSRDELTKNQVSLTCLVKGFYPSDIAVEWESNGQPENNYKTTPPVLDSDGSFFLYSKLTVDKSRWQQGNVFSCSVMHEALVRHYTQKSLSLSPGK
koff: 0.000124 s⁻¹
--
Binder: Fc region SN 1 of FIG. 13 (IgG1 256P/433S/434H/440G) (other) PCPAPELLGGPSVFLFPPKPKDTLMISRPPEVTCVVVDVSHEDPEVKFNWYVDGVEVHNAKTKPREEQYNSTYRVVSVLTVLHQDWLNGKEYKCKVSNKALPAPIEKTISKAKGQPREPQVYTLPPSRDELTKNQVSLTCLVKGFYPSDIAVEWESNGQPENNYKTTPPVLDSDGSFFLYSKLTVDKSRWQQGNVFSCSVMHEALSHHYTQKGLSLSPGK
koff: 0.000388 s⁻¹
--
Binder: Fc region SN 92 of FIG. 13 (IgG1 256A/436F/440M) (other) PCPAPELLGGPSVFLFPPKPKDTLMISRAPEVTCVVVDVSHEDPEVKFNWYVDGVEVHNAKTKPREEQYNSTYRVVSVLTVLHQDWLNGKEYKCKVSNKALPAPIEKTISKAKGQPREPQVYTLPPSRDELTKNQVSLTCLVKGFYPSDIAVEWESNGQPENNYKTTPPVLDSDGSFFLYSKLTVDKSRWQQGNVFSCSVMHEALHNHFTQKMLSLSPGK
koff: 0.0145 s⁻¹
